- System: HCT116
- assay overview: efficacy (fitted maximal change in viability relative to DMSO control); higher = less cytotoxic (negative = loss of viability)
- cond: 48 h
experimental readout: efficacy (%)
Answers are plain numbers, in %.

Please report efficacy with HCT116 for item Cc1c(F)ccc(C(=O)Nc2cc([N+](=O)[O-])ccc2N2CCN(C)CC2)c1Cl [WDR5-C47] .
-7.44

Provide efficacy, system HCT116, entry CO/C1=C/C(C)=C\[C@@H](C)[C@@H](O)[C@@H](C)C/C(C)=C\C=C/[C@H](OC)[C@@H]([C@@H](C)[C@@H](O)[C@H](C)[C@@]2(O)C[C@@H](O)[C@H](C)[C@@H](C(C)C)O2)OC1=O [Bafilomycin A1]
-81.9

Now for another entry.
Report efficacy under test system HCT116 for CCCCC(=O)OCC(=O)[C@]1(O)Cc2c(O)c3c(c(O)c2[C@@H](O[C@H]2C[C@H](NC(=O)C(F)(F)F)[C@H](O)[C@H](C)O2)C1)C(=O)c1c(OC)cccc1C3=O [Valrubicin] .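 Also: Luminescence-based viability readout, five doses per compound, normalized against on-plate DMSO and empty-well controls, followed by dose-response curve fitting for every drug.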
-88.9

Values compiled from the supplement of paper PMC10290057.
